test system: apolipoprotein B; assay: Apolipoprotein B (apo B) inhibition test in cultured human liver cells (Hepg2-cells); format: cell-based; conditions: concentration of the drug needed to reduce apoB secretion to 50% of the control, overnight at 37° C.
READOUT: IC50 (nM)
The reply should contain only the number, in nM.

Input line: Look up IC50 for this compound: CCC(C)n1ccn(-c2ccc(N3CCN(c4ccc(OC[C@H]5CO[C@](CSc6nncn6C)(c6ccc(F)cc6)O5)cc4)CC3)cc2)c1=O (relative stereo) [Compound 126]
Output line: 140

Input line: Try this compound too: CC(C)Cn1cnn(-c2ccc(N3CCN(c4ccc(OC[C@H]5CO[C@](CSc6ncnn6C)(c6ccc(Cl)cc6)O5)cc4)CC3)cc2)c1=O (relative stereo) [Compound 87]
Output line: 69

Input line: Try this compound too: CCCn1nc(CC)nc1SC[C@]1(c2ccc(Cl)cc2)OC[C@H](COc2ccc(N3CCN(c4ccc(-n5cnn(C(C)CC)c5=O)cc4)CC3)cc2)O1 (relative stereo) [Compound 78]
Output line: 53
